settings: in ethanol, 323.15 K
REPORTED_PROPERTY: solubility (mole fraction)
One number for each entry.

Exercise: Can you share its solubility (mole fraction)? I mean this molecule: O=C1OC(=O)[C@H]2[C@@H]1[C@@H]1C=C[C@H]2O1
Solution: 0.00292

* * *

conditions: in 1,4-dioxane, 308.15 K
REPORTED_PROPERTY: solubility (mole fraction)
Give bare numbers.

Exercise: So what does the record say about solubility (mole fraction) for O=C1OC(=O)[C@H]2[C@@H]1[C@@H]1C=C[C@H]2O1 ?
Solution: 0.052

* * *

conditions: in ethyl acetate, 303.15 K
REPORTED_PROPERTY: solubility (mole fraction)
Numbers only.

Exercise: Entry under review: O=C1OC(=O)[C@H]2[C@@H]1[C@@H]1C=C[C@H]2O1 . Reported solubility (mole fraction)?
Solution: 0.0309
